All figures here come from the supplement of paper PMC7877785.

- assay.notes: self-splicing fitness, log relative to wild type (ln ratio); higher = more splicing; Tetrahymena group I intron in knt gene, E. coli kanamycin selection, DiMSum; sequences stand for … in CUCUCU…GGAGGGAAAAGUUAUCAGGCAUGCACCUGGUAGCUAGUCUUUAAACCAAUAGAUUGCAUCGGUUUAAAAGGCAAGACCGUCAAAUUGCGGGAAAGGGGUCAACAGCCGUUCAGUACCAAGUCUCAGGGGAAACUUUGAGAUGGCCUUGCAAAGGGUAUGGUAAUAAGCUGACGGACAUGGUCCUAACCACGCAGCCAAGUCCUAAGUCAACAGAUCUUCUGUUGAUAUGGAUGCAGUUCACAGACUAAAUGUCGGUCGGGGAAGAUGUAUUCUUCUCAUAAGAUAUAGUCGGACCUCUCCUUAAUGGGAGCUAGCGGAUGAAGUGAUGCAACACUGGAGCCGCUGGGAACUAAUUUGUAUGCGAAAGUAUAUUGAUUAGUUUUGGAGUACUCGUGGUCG;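 further: selection with 25 µg/mL kanamycin versus none on LB agar overnight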
- conditions: 37 °C
Threshold check on self-splicing fitness (ln): at or above -0.5 gives condition met, strictly below gives condition not met.

stdin: Is it the case that `UGUCAGCAAUAUUACGGUCA` has self-splicing fitness (ln) reaching or exceeding -0.5?
stdout: condition met

stdin: Is it the case that `AUAAAGCAAUAUUACGGUCC` has self-splicing fitness (ln) reaching or exceeding -0.5?
stdout: condition met

stdin: Is it the case that `UGAGAGCAAUAUUACGCCCG` has self-splicing fitness (ln) reaching or exceeding -0.5?
stdout: condition not met

stdin: Is it the case that `GUCAAGCAAUAUUACGGCAG` has self-splicing fitness (ln) reaching or exceeding -0.5?
stdout: condition not met

stdin: Is it the case that `UGCUAGCAAUAUUACGCCAU` has self-splicing fitness (ln) reaching or exceeding -0.5?
stdout: condition not met

stdin: Is it the case that `GUGGAGCAAUAUUACGUGUC` has self-splicing fitness (ln) reaching or exceeding -0.5?
stdout: condition not met

stdin: Is it the case that `UGAAAGCAAUAUUACGAUAA` has self-splicing fitness (ln) reaching or exceeding -0.5?
stdout: condition met

stdin: Is it the case that `UCGAAGCAAUAUUACGGCGC` has self-splicing fitness (ln) reaching or exceeding -0.5?
stdout: condition not met

stdin: Is it the case that `CCCGAGCAAUAUUACGGUAA` has self-splicing fitness (ln) reaching or exceeding -0.5?
stdout: condition not met

stdin: Is it the case that `UGGGAGCAAUAUUACGGGGU` has self-splicing fitness (ln) reaching or exceeding -0.5?
stdout: condition not met

stdin: Is it the case that `UUUCAGCAAUAUUACGAUAG` has self-splicing fitness (ln) reaching or exceeding -0.5?
stdout: condition met

stdin: Is it the case that `AGCAAGCAAUAUUACGGAUU` has self-splicing fitness (ln) reaching or exceeding -0.5?
stdout: condition met

stdin: Is it the case that `GGCGAGCAAUAUUACGAUUC` has self-splicing fitness (ln) reaching or exceeding -0.5?
stdout: condition met

stdin: Is it the case that `GAGCAGCAAUAUUACGCGCU` has self-splicing fitness (ln) reaching or exceeding -0.5?
stdout: condition not met

stdin: Is it the case that `AGCGAGCAAUAUUACGUUAC` has self-splicing fitness (ln) reaching or exceeding -0.5?
stdout: condition not met

stdin: Is it the case that `CAGUAGCAAUAUUACGUAAC` has self-splicing fitness (ln) reaching or exceeding -0.5?
stdout: condition not met

stdin: Is it the case that `CGCAAGCAAUAUUACGUUAU` has self-splicing fitness (ln) reaching or exceeding -0.5?
stdout: condition not met

stdin: Is it the case that `ACUUAGCAAUAUUACGGGUG` has self-splicing fitness (ln) reaching or exceeding -0.5?
stdout: condition not met
